Attribution: patent US10093630B2

In this section, each of the compounds is paired with its reported inhibition at 10 µM.
biological target: PLA2G7 (Mus musculus); construct: Proteomes (mouse brain membrane fraction or cell lysates); from tissue; host or cells: mouse brain membrane fraction (or cell lysates, not specified); assay: In vitro competitive activity-based protein profiling (gel-based, FP-Rh or HT-01 probe); type: biochemical; conditions: 10 μM inhibitor; read-out: % Inhibition at 10 μM, D = PLA2G7
Sequence (Q60963 22-440): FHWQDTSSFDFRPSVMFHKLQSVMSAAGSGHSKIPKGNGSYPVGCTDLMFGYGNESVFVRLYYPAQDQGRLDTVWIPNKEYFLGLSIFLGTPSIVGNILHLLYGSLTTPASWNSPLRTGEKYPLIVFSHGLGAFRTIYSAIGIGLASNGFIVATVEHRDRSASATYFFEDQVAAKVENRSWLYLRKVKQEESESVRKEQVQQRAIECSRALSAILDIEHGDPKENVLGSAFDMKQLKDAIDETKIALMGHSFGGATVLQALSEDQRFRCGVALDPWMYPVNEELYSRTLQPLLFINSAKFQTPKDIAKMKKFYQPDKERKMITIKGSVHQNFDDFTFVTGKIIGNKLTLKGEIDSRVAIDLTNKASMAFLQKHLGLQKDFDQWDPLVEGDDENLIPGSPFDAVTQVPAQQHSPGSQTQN

Worked cases, answers included:
Requested read-out: inhibition at 10 µM. Entry: O=C(N1CCCCC1)n1cccn1 [Example 1, Piperidin-1-yl(1H-pyrazol-1-yl)methanone]
25 to 75%

Requested read-out: inhibition at 10 µM. Entry: CCN(Cc1ccc(OC)cc1)C(=O)n1cc(Cl)cn1 [Example 129]
< 25%

Requested read-out: inhibition at 10 µM. Entry: O=C(c1ccccc1)N1CCCN(C(=O)n2cc(Cl)cn2)CC1 [Example 192]
> 75%

Requested read-out: inhibition at 10 µM. Entry: CCN(Cc1cccc(OC)c1)C(=O)n1cc(Cl)cn1 [Example 128]
< 25%

Requested read-out: inhibition at 10 µM. Entry: COc1ccccc1N1CCN(C(=O)n2cc(C(F)(F)F)cn2)CC1 [Example 233]
> 75%

***
Requested read-out: inhibition at 10 µM. Entry: O=C(N1CCN(Cc2ccccn2)CC1)n1cc(-c2ccccc2)cn1 [Example 61]
> 75%

Requested read-out: inhibition at 10 µM. Entry: CC(C)(C)OC(=O)N1CCCN(C(=O)n2cc(C#N)cn2)CC1 [Example 27]
> 75%

Requested read-out: inhibition at 10 µM. Entry: COc1cccc(N2CCN(C(=O)n3cc(C(F)(F)F)cn3)CC2)c1 [Example 234]
> 75%

Requested read-out: inhibition at 10 µM. Entry: O=C(N1CCN(Cc2ccc(C(F)(F)F)cc2N2CCCC2)CC1)n1cc(-c2ccc(C(F)(F)F)cc2)cn1 [Example 116]
> 75%

Requested read-out: inhibition at 10 µM. Entry: O=C(N1CCN(C(c2ccc(Cl)cc2)c2ccc(Cl)cc2)CC1)n1cc(-c2ccc(C(F)(F)F)cc2)cn1 [Example 124]
> 75%

* * *

target: MAGL (Mus musculus); construct: Proteomes (mouse brain membrane fraction or cell lysates); from tissue; host or cells: mouse brain membrane fraction (or cell lysates, not specified); experiment: In vitro competitive activity-based protein profiling (gel-based, FP-Rh or HT-01 probe); type: biochemical; conditions: 1 μM inhibitor
In this section, each of the compounds is paired with its reported inhibition at 1 µM.

Worked cases, answers included:
For the record `O=C(c1cnn(C(=O)N2CCN(Cc3ccccn3)CC2)c1)N1CCCCC1` , what value of inhibition at 1 µM is listed for MAGL (Mus musculus)?
< 25%

For the record `O=C(N1CCN(c2cccc(Cl)c2)CC1)n1cc(C(F)(F)F)cn1` , what value of inhibition at 1 µM is listed for MAGL (Mus musculus)?
> 75%

For the record `N#Cc1cnn(C(=O)Nc2ccc3ccccc3c2)c1` , what value of inhibition at 1 µM is listed for MAGL (Mus musculus)?
< 25%

For the record `CCN(Cc1cccc(Cl)c1)C(=O)n1cc(C#N)cn1` , what value of inhibition at 1 µM is listed for MAGL (Mus musculus)?
> 75%

For the record `N#Cc1cnn(C(=O)NCc2ccc3ccccc3c2)c1` , what value of inhibition at 1 µM is listed for MAGL (Mus musculus)?
< 25%

***
For the record `O=C(c1cnn(C(=O)N2CCN(Cc3ccncn3)CC2)c1)N1CCCCC1` , what value of inhibition at 1 µM is listed for MAGL (Mus musculus)?
< 25%

For the record `O=C(N1CCN(Cc2ccccc2)CC1)n1cccn1` , what value of inhibition at 1 µM is listed for MAGL (Mus musculus)?
> 75%

For the record `O=C(N1CCN(c2ccc(N3CCOCC3)cc2)CC1)n1cc(C(F)(F)F)cn1` , what value of inhibition at 1 µM is listed for MAGL (Mus musculus)?
> 75%

For the record `Cc1cc(-c2ccccc2)ccc1CN1CCN(C(=O)n2cc(C(=O)N3CCOCC3)cn2)CC1` , what value of inhibition at 1 µM is listed for MAGL (Mus musculus)?
> 75%

* * *

Target: MAGL (Mus musculus, UniProt O35678)
Construct: Proteomes (mouse brain membrane fraction or cell lysates); from tissue; host or cells: mouse brain membrane fraction (or cell lysates, not specified)
Sequence (O35678 1-303): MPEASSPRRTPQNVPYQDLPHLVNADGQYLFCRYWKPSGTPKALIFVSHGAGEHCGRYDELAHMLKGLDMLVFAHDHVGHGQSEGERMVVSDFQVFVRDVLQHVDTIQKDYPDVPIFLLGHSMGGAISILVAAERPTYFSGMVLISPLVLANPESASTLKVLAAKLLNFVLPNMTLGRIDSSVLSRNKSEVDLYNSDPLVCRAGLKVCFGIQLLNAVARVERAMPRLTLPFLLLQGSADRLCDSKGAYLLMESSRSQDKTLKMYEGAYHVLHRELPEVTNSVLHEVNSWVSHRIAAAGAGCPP
Assay: In vitro competitive activity-based protein profiling (gel-based, FP-Rh or HT-01 probe)
Type: biochemical
Conditions: 1 μM inhibitor
In this section, each of the compounds is paired with its reported inhibition at 1 µM.

Requested read-out: inhibition at 1 µM. Entry: `O=C(NCc1ccc2ccccc2c1)n1cccn1`
< 25%

Requested read-out: inhibition at 1 µM. Entry: `O=C(N1CCN(Cc2c(N3CCCC3)cccc2C(F)(F)F)CC1)n1cc(C(F)(F)F)cn1`
> 75%

Requested read-out: inhibition at 1 µM. Entry: `O=C(N1CCN(Cc2ccc3ccccc3c2)CC1)n1cc(I)cn1`
> 75%

Requested read-out: inhibition at 1 µM. Entry: `Cc1cnn(C(=O)N2CCCCC2)c1`
< 25%

***
Requested read-out: inhibition at 1 µM. Entry: `CN1CCCN(C(=O)n2cc(C(F)(F)F)cn2)CC1`
< 25%

* * *

In this section, each of the molecules is paired with its reported inhibition at 10 µM.
biological target: PLA2G7 (Mus musculus); construct: Proteomes (mouse brain membrane fraction or cell lysates); from tissue; host or cells: mouse brain membrane fraction (or cell lysates, not specified); assay: In vitro competitive activity-based protein profiling (gel-based, FP-Rh or HT-01 probe); format: biochemical; conditions: 10 μM inhibitor; read-out: % Inhibition at 10 μM, D = PLA2G7

Requested read-out: inhibition at 10 µM. Entry: N#Cc1cnn(C(=O)N2CCN(c3ccccc3)CC2)c1 [Example 206]
> 75%

***
Requested read-out: inhibition at 10 µM. Entry: CC(=O)N1CCCN(C(=O)n2cc(C(F)(F)F)cn2)CC1 [Example 154]
> 75%

Requested read-out: inhibition at 10 µM. Entry: O=C(N1CCCC1)n1cc(C(F)(F)F)cn1 [Example 199]
> 75%

Requested read-out: inhibition at 10 µM. Entry: O=C(c1cnn(C(=O)N2CCN(Cc3nccs3)CC2)c1)N1CCOCC1 [Example 55]
> 75%

Requested read-out: inhibition at 10 µM. Entry: Cc1cnn(C(=O)N2CCN(Cc3ccc(OCc4ccccc4)cc3)CC2)c1 [Example 20]
25 to 75%

Requested read-out: inhibition at 10 µM. Entry: Cc1cnn(C(=O)N2CCCN(S(C)(=O)=O)CC2)c1 [Example 166]
< 25%

Requested read-out: inhibition at 10 µM. Entry: CC(C)c1cnn(C(=O)N2CCN(Cc3c(N4CCCC4)cccc3C(F)(F)F)CC2)c1 [Example 112]
> 75%

Requested read-out: inhibition at 10 µM. Entry: COc1ccccc1-c1ccc(-c2cnn(C(=O)N3CCCC3)c2)cc1 [Example 107]
25 to 75%

Requested read-out: inhibition at 10 µM. Entry: CC(=O)N1CCN(C(=O)n2cc(C)cn2)CC1 [Example 161]
> 75%

* * *

Target: FAAH (Mus musculus, UniProt O08914)
Construct: Proteomes (mouse brain membrane fraction or cell lysates); from tissue; host or cells: mouse brain membrane fraction (or cell lysates, not specified)
Sequence (O08914 1-579): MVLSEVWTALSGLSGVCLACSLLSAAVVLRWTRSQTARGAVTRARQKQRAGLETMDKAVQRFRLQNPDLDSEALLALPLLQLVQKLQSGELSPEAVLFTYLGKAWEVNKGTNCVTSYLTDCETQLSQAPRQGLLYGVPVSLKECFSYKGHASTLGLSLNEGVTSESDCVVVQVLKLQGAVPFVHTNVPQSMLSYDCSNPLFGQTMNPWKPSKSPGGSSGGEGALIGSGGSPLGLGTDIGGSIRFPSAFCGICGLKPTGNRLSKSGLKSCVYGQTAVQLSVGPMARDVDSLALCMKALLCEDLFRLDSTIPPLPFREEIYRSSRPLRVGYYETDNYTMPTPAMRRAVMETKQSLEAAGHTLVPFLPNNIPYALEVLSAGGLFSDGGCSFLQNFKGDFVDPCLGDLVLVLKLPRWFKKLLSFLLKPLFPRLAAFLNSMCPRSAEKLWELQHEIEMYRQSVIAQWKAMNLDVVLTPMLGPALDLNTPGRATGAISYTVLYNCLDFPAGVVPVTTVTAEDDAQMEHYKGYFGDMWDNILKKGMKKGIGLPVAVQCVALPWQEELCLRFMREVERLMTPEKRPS
Assay: In vitro competitive activity-based protein profiling (gel-based, FP-Rh or HT-01 probe)
Assay type: biochemical
Settings: 10 μM inhibitor; read-out: % Inhibition at 10 μM, B = FAAH
property: inhibition at 10 µM

Requested read-out: inhibition at 10 µM. Entry: CC(=O)N(C)CCN(C)C(=O)n1cc(C(F)(F)F)cn1 [Example 159]
25 to 75%

Requested read-out: inhibition at 10 µM. Entry: O=C(Nc1ccc2ccccc2c1)n1cccn1 [Example 40]
< 25%

Requested read-out: inhibition at 10 µM. Entry: O=C(N1CCN(Cc2ccc(Oc3ccccc3)cc2)CC1)n1cccn1 [Example 16]
> 75%

Requested read-out: inhibition at 10 µM. Entry: Cc1cnn(C(=O)NCCCCCc2ccccc2)c1 [Example 38]
< 25%

***
Requested read-out: inhibition at 10 µM. Entry: O=C(N1CCCN(Cc2ccccc2)CC1)n1cc(C(F)(F)F)cn1 [Example 157]
> 75%

Requested read-out: inhibition at 10 µM. Entry: N#Cc1cnn(C(=O)N2CCCC2)c1 [Example 203]
> 75%
